Below is a list of entries, each paired with its recorded koff value.
biological target: T1, human ROR1 Frizzled domain (hROR1-Fz) (human, UniProt Q01973 165-305); assay: SPR Biacore, IgG on anti-Fc, ROR1-Fz analyte
T1 construct: Acro Biosystems, made in HEK293
T1 sequence (Q01973 other isoform, or with tags, fused parts or gaps): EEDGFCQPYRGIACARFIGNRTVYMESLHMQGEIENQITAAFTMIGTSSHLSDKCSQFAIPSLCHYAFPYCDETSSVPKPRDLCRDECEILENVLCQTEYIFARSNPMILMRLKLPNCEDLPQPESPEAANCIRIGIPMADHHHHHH
State the answer as a number, implicitly in s⁻¹.

Below, each entry is followed by its recorded koff result.
{"binder": "SRP2196-C04 (antibody, V domains shown, His/FLAG-tagged IgG1; also called Antibody 162) VH: EVQLVESGGGLVQPGGSLRLSCAASGFNITGYYIHWVRQAPGKGLEWVGFIAPLSGSTHNADSVKGRFTISADTSKNTAYLQMNSLRAEDTAVYYCARESRRYVNPWDYWGQGTLVTVSS VL: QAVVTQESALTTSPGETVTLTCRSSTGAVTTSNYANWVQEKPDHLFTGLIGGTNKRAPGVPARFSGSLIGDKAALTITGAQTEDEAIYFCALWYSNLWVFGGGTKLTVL", "unit-tag": "s⁻¹", "koff": 0.000704}
{"binder": "SRP2196-A08 (antibody, V domains shown, His/FLAG-tagged IgG1) VH: EVQLVESGGGLVQPGGSLRLSCAASGFNITGYYIHWVRQAPGKGLEWVGYISPNSGSTYKADSVKGRFTISADTSRNTAYLQMNSLRAEDTAVYYCARDSRRYVRSWDYWGQGTLVTVSS VL: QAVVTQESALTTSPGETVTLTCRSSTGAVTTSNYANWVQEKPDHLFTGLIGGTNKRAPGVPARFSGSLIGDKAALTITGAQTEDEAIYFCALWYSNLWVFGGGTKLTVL", "unit-tag": "s⁻¹", "koff": 0.00078}

Request: Look at this binder and give its reported koff. SRP2196-A10 (antibody, V domains shown, His/FLAG-tagged IgG1) VH: EVQLVESGGGLVQPGGSLRLSCAASGFNITGYYIHWVRQAPGKGLEWVGYISPNSGATHYADSVKGRFTISADISKNTAYLQMNSLRAEDTAVHYCARDSRRYVRSWDYWGQGTLVTVSS VL: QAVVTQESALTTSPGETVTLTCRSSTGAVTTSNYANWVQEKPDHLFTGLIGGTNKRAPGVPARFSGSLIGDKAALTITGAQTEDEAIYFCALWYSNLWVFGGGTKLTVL
Result: 0.000479
